tested on: Cryptococcus neoformans; assay: Antifungal activity against Cryptococcus neoformans BLS108 after 72 hrs by micro-broth dilution method; format: functional; details: BLS108, 72 h
Could you please report measured MIC80 for the items listed next?

Problem: Would you kindly share the measured MIC80 for N#Cc1cccc(-n2cnn(CC(O)(Cn3cncn3)c3ccc(F)cc3F)c2=O)c1 (racemic) ?
Result: 0.25 µg/mL

Problem: Can you check N#CCC(=O)Nc1ccc(-n2cnn(CC(O)(Cn3cncn3)c3ccc(F)cc3F)c2=O)cc1 (racemic) next?
Result: > 64 µg/mL

Problem: Can you check O=C(Nc1ccc(-n2cnn(CC(O)(Cn3cncn3)c3ccc(F)cc3F)c2=O)cc1)c1ccccn1 (racemic) next?
Result: > 64 µg/mL

Problem: Can you check Cc1ccnc(-n2cnn(CC(O)(Cn3cncn3)c3ccc(F)cc3F)c2=O)c1 (racemic) next?
Result: 0.00024 µg/mL

Problem: Can you check Cc1ccc(-n2cnn(CC(O)(Cn3cncn3)c3ccc(F)cc3F)c2=O)cc1 (racemic) next?
Result: 64 µg/mL

Problem: Can you check CCC(C)n1ncn(-c2ccc(N3CCN(c4ccc(OCC5COC(Cn6cncn6)(c6ccc(Cl)cc6Cl)O5)cc4)CC3)cc2)c1=O (stereo unspecified) [ITRACONAZOLE] next?
Result: 0.0625 µg/mL

Problem: Can you check COc1ccc(-n2cnn(CC(O)(Cn3cncn3)c3ccc(F)cc3F)c2=O)cc1 (racemic) next?
Result: 16 µg/mL

Problem: Can you check C[C@@H]1[C@H](O)[C@@H](C)/C=C/C=C/C=C/C=C/C=C/C=C/C=C/[C@H](O[C@@H]2O[C@H](C)[C@@H](O)[C@H](N)[C@@H]2O)C[C@@H]2O[C@](O)(C[C@@H](O)C[C@@H](O)[C@H](O)CC[C@@H](O)C[C@@H](O)CC(=O)O[C@H]1C)C[C@H](O)[C@H]2C(=O)O [AMPHOTERICIN B] next?
Result: 1 µg/mL

Problem: Can you check CC(=O)Nc1ccc(-n2cnn(CC(O)(Cn3cncn3)c3ccc(F)cc3F)c2=O)cc1 (racemic) next?
Result: > 64 µg/mL

Problem: Can you check CCCC(=O)Nc1ccc(-n2cnn(CC(O)(Cn3cncn3)c3ccc(F)cc3F)c2=O)cc1 (racemic) next?
Result: > 64 µg/mL

Problem: Can you check O=c1n(-c2ccccc2)cnn1CC(O)(Cn1cncn1)c1ccc(F)cc1F (racemic) next?
Result: 64 µg/mL

Problem: Can you check CCCCCCC(=O)Nc1ccc(-n2cnn(CC(O)(Cn3cncn3)c3ccc(F)cc3F)c2=O)cc1 (racemic) next?
Result: 0.0625 µg/mL

Problem: Can you check O=C(Nc1ccc(-n2cnn(CC(O)(Cn3cncn3)c3ccc(F)cc3F)c2=O)cc1)C1CC1 (racemic) next?
Result: > 64 µg/mL

Problem: Can you check C[C@@H](c1ncncc1F)[C@](O)(Cn1cncn1)c1ccc(F)cc1F [VORICONAZOLE] next?
Result: 0.0039 µg/mL

Problem: Can you check O=C(Nc1ccc(-n2cnn(CC(O)(Cn3cncn3)c3ccc(F)cc3F)c2=O)cc1)C1CCCCC1 (racemic) next?
Result: > 64 µg/mL

Problem: Can you check O=c1n(-c2ccc([N+](=O)[O-])cc2)cnn1CC(O)(Cn1cncn1)c1ccc(F)cc1F (racemic) next?
Result: 64 µg/mL
